The measurements presented in this section are drawn from patent US20240158348A1.

test system: ragweed (common ragweed, Ambrosia artemisiifolia); experiment: Test C preemergence, ragweed; format: in vivo; settings: 31 g ai/ha Preemergence; 0 is no effect, 100 is complete control
Plant response rating (0 to 100 scale), Ragweed values for the molecules below.
Number only, please.

Completed entries (count: 3):
MOLECULE: C=CCO/N=C1\CCN(c2cc(NS(=O)(=O)C(F)(F)F)c(C)cc2C)C1=O
TARGET: ragweed (common ragweed, Ambrosia artemisiifolia)
QUANTITATIVE RESULT: 80
--
MOLECULE: Cc1c(N2CCC(OC3CCC3)C2=O)cc(N(C(=O)OCC(C)C)S(=O)(=O)C(F)(F)F)c(C)c1C (stereo not drawn)
TARGET: ragweed (common ragweed, Ambrosia artemisiifolia)
QUANTITATIVE RESULT: 20
--
MOLECULE: Cc1cc(C)c(N(C(=O)OCC(C)C)S(=O)(=O)C(F)(F)F)cc1N1CCC(OC2CC2)C1=O (stereo not drawn)
TARGET: ragweed (common ragweed, Ambrosia artemisiifolia)
QUANTITATIVE RESULT: 40

## Input Any idea what Plant response rating (0 to 100 scale), Ragweed was measured for Cc1c(N2CCC(OC3CCC3)C2=O)cc(N(COC(=O)C(C)(C)C)S(=O)(=O)C(F)(F)F)c(C)c1C (stereo not drawn) ?
## Output 0

## Input Suppose we examine the molecule C#CCO/N=C1\CCN(c2cc(NS(=O)(=O)C(F)(F)F)c(C)cc2C)C1=O ; what Plant response rating (0 to 100 scale), Ragweed value has been reported?
## Output 50

## Input Give the measured Plant response rating (0 to 100 scale), Ragweed of Cc1c(NS(=O)(=O)C(F)(F)F)cc(N2CCC(OCC3CC3)C2=O)c(C)c1F (stereo not drawn) .
## Output 90

###

test system: galium (catchweed bedstraw, Galium aparine); experiment: Test C postemergence, galium; format: in vivo; details: 31 g ai/ha Postemergence; visual injury, 0 to 100 scale (0 no effect, 100 complete control)
MEASUREMENT NAME: Galium plant response rating
API doc: respond with a numeric literal and nothing else, no unit.

MOLECULE: Cc1cc(C)c(N2CCC(OCC3CCC3)C2=O)cc1NS(=O)(=O)C(F)(F)F (centres unmarked) [Compound 43]
MEASUREMENT NAME: Galium plant response rating
QUANTITATIVE RESULT: 70
--
MOLECULE: CC#CCOC1CCN(c2cc(NS(=O)(=O)C(F)(F)F)c(C)cc2C)C1=O (centres unmarked) [Compound 60]
MEASUREMENT NAME: Galium plant response rating
QUANTITATIVE RESULT: 100
--
MOLECULE: Cc1c(NS(=O)(=O)C(F)(F)F)cc(N2CCC(OCC3CCC3)C2=O)c(C)c1F (centres unmarked) [Compound 64]
MEASUREMENT NAME: Galium plant response rating
QUANTITATIVE RESULT: 100
--
MOLECULE: Cc1cc(C)c(N2CCC(OCC3CC3)C2=O)cc1NS(=O)(=O)C(F)(F)F (centres unmarked) [Compound 22]
MEASUREMENT NAME: Galium plant response rating
QUANTITATIVE RESULT: 100

Let us examine a further case.
## Input Name the recorded Galium plant response rating for CCOC(=O)N(c1cc(N2CCC(OC3CC3)C2=O)c(C)cc1C)S(=O)(=O)C(F)(F)F (centres unmarked) [Compound 19] .
## Output 30

###

system: oat, wild (wild oat, Avena fatua); assay: Test C postemergence, wild oat; format: in vivo; conditions: 125 g ai/ha Postemergence; visual injury, 0 to 100 scale (0 no effect, 100 complete control)
MEASUREMENT NAME: Oat, Wild plant response rating
No unit in the answer, only the number.

COMPOUND: C#CC(C)OC1CCN(c2cc(NS(=O)(=O)C(F)(F)F)c(C)cc2C)C1=O (stereo not drawn) [Compound 58]
Oat, Wild plant response rating: 90

COMPOUND: Cc1cc(C)c(N2CCC(OCC3CC3(F)F)C2=O)cc1NS(=O)(=O)C(F)(F)F (stereo not drawn) [Compound 41]
Oat, Wild plant response rating: 30

In the following, a different compound is considered.
## Input Query: Oat, Wild plant response rating; subject: Cc1cc(C)c(N2CCC(OCc3ccccc3)C2=O)cc1NS(=O)(=O)C(F)(F)F (stereo not drawn) [Compound 61]
## Output 80
